- MEASUREMENT NOTES: Drug uptake in Sprague-Dawley rat liver at 0.03 mg/kg, po qd administered via gavage measured 7 hrs post last dose on day 14 by LC-MS/MS analysis
- Format: ADME, organism-based
- SETUP CONDITIONS: read-out: Drug uptake
READOUT TYPE: concentration at 7 h (nM)
Answers are plain numbers, in nM.

QUERY: Give its concentration at 7 h value. Item: O=C(O)c1cc(F)c2nc(N3C4CCC3CC(OCc3c(-c5ccccc5OC(F)(F)F)noc3C3CC3)C4)sc2c1 (stereo unspecified)
RESULT: 9.74

----------
- MEASUREMENT NOTES: Cmax in rat at 1 mg/kg, po administered via gavage by LC-MS/MS analysis
- Format: ADME, organism-based
- Set-up: dose 1 mg/kg, route oral
- SETUP CONDITIONS: in vivo
READOUT TYPE: Cmax

QUERY: Give its Cmax value. Item: O=C(O)c1cc(F)c2nc(N3C4CCC3CC(OCc3c(-c5ccccc5OC(F)(F)F)noc3C3CC3)C4)sc2c1 (stereo unspecified)
RESULT: 53 nM

----------
- MEASUREMENT NOTES: AUC (0 to 24 hrs) in Sprague-Dawley rat at 1 mg/kg, po qd administered via gavage measured on day 1 by LC-MS/MS analysis
- Assay type: ADME, organism-based
- Set-up: dose 1 mg/kg, time < 24 hr, route oral
- SETUP CONDITIONS: in vivo
READOUT TYPE: AUC(0-t) at 24 h (µM·h)
Give bare numbers, in µM·h.

QUERY: Give its AUC(0-t) at 24 h value. Item: O=C(O)c1cc(F)c2nc(N3C4CCC3CC(OCc3c(-c5ccccc5OC(F)(F)F)noc3C3CC3)C4)sc2c1 (stereo unspecified)
RESULT: 0.461

----------
For each record, write down the corresponding EC50.
- TARGET OF ASSAY: Bile acid receptor (Homo sapiens, UniProt Q96RI1)
- Sequence (Q96RI1 whole entry, the tested form may be a part): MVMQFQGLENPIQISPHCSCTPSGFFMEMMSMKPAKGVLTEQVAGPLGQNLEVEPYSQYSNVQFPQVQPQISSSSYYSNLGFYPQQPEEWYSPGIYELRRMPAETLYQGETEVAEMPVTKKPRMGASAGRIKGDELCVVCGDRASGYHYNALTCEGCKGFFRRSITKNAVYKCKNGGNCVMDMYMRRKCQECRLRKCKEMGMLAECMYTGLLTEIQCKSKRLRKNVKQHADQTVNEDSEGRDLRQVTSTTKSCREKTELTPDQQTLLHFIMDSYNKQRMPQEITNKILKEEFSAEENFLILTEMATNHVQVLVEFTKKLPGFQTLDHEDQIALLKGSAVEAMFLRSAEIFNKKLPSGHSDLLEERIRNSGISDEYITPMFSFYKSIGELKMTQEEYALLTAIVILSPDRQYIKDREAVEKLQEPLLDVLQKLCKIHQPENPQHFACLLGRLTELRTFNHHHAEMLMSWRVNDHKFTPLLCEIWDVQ
- MEASUREMENT NOTES: Agonist activity at recombinant human GST-tagged FXR ligand binding domain (193 to 472 residues) expressed in baculovirus infected insect cells assessed as induction of interaction with biotin labelled SRC-1 after 1 hr by HTRF assay
Numbers only, in nM.

# per-item lookup of EC50; items listed below
1. O=C(O)c1ccc2nc(N3CC(OCc4c(-c5ccccc5OC(F)(F)F)noc4C4CC4)C3)sc2c1
2. O=C(O)c1cc(F)c2nc(N3C4CCC3CC(OCc3c(-c5ccccc5OC(F)F)noc3C3CC3)C4)sc2c1 (stereo not given)

RESULT:
1580
0.27

----------
- MEASUREMENT NOTES: Solubility of the compound in fasted state simulated intestinal fluid at pH 6.8
- Format: physicochemical
READOUT TYPE: log10 solubility (log10 of the value in µM)
The base-10 logarithm of solubility, taken with solubility in µM, is what appears here.

Below, each entry is followed by its recorded log10 solubility result.
O=C(O)c1ccc2nc(N3CCC(OCc4c(-c5c(F)cccc5F)noc4C4CC4)CC3)sc2c1; 2.23
O=C(O)c1ccc2nc(N3CCC(OCc4c(-c5ccccc5OC(F)(F)F)noc4C4CC4)CC3)sc2c1; 1.85
O=C(O)c1cc(F)c2nc(N3C4CCC3CC(OCc3c(-c5ccccc5C(F)(F)F)noc3C3CC3)C4)sc2c1 (stereo unspecified); 2.71
COc1cc(C(=O)O)cc2sc(N3C4CCC3CC(OCc3c(-c5ccccc5OC(F)(F)F)noc3C3CC3)C4)nc12 (stereo unspecified); 1.88
O=C(O)c1ccc2nc(N3CCCC(OCc4c(-c5ccccc5OC(F)(F)F)noc4C4CC4)CC3)sc2c1 (stereo unspecified); 2.10
O=C(O)c1ccc2nc(N3C4CCC3CC(OCc3c(-c5ccccc5OC(F)(F)F)noc3C3CC3)C4)sc2c1 (stereo unspecified); 2.04
O=C(O)c1cc(F)c2nc(N3C4CCC3CC(OCc3c(-c5ccccc5OC(F)(F)F)noc3C3CC3)C4)sc2c1 (stereo unspecified); 2.78
O=C(O)c1ccc2nc(N3CCC(OCc4c(-c5c(Cl)cccc5Cl)noc4C4CC4)CC3)sc2c1; 1.79
O=C(O)c1cc(F)c2nc(N3C4CCC3CC(OCc3c(-c5ccccc5OC(F)F)noc3C3CC3)C4)sc2c1 (stereo unspecified); 2.88

Continue with the compound presented below.
QUERY: Give its log10 solubility value. Item: O=C(O)c1ccc2nc(N3CCC(OCc4c(-c5ccccc5C(F)(F)F)noc4C4CC4)CC3)sc2c1
RESULT: 2.12

Reference for the values: ChEMBL document CHEMBL4028903
